Molecular target: human PRMT1 (Homo sapiens)
Construct: GST-tagged PRMT1; made in house; host or cells: High Five insect cells (baculovirus, pFastBac1)
Sequence (Q99873 with tags, fused parts or gaps): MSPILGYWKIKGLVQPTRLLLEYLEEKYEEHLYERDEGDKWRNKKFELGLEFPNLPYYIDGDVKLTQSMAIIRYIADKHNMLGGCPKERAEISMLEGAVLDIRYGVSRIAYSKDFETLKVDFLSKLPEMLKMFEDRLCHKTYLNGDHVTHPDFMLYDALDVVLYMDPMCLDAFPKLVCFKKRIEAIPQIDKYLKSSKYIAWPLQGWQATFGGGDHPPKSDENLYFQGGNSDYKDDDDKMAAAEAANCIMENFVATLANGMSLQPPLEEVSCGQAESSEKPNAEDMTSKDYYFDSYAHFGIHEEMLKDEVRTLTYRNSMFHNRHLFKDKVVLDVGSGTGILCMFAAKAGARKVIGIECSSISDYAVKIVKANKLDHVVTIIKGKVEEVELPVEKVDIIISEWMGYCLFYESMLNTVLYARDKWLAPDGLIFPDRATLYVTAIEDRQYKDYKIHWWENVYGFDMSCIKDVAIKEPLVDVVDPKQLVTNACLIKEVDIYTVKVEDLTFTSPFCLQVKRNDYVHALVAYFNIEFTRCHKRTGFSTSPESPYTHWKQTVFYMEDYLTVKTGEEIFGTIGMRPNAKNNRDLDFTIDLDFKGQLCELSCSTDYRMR
Assay: PRMT1 Biochemical Assay
Details: peptide substrate, 3H-SAM Flashplate assay; read-out: PRMT1 IC50
Excerpt: S-adenosylmethionine (SAM), S-adenosylhomocysteine (SAH), bicine, Tween20, dimethylsulfoxide (DMSO), bovine skin gelatin (BSG), and Tris(2-carboxyethyl)phosphine hydrochloride solution (TCEP) were purchased from Sigma-Aldrich at the highest level of purity possible. ^3H-SAM was purchase from American Radiolabeled Chemicals with a specific activity of 80 Ci/mmol. 384-well streptavidin Flashplates were purchased from PerkinElmer. […]
READOUT_KIND: IC50 (nM)

# count of solved cases: 2
# MOLECULE, IC50, nM
records = [
    ("CNCCN(C)Cc1c[nH]nc1-c1ccc(OCCOc2cccc(CO)c2)cc1 [Compound 143]", 6.69),
    ("CNCCN(C)Cc1cnn(CCOC)c1-c1ccc(OC(C)C)cc1 [Compound 97]", 28.2),
]

a = CNCCN(C)Cc1c[nH]nc1-c1ccc(N(CCCN2CCOCC2)CC(C)C)nc1 [Compound 69]
b = C=C(C)COc1c(Cl)cc(-c2n[nH]cc2CN(C)CCNC)cc1Cl [Compound 7]
c = CNCCN(C)Cc1c[nH]nc1-c1ccc(OCCOc2cccc(C(O)CO)c2)cc1 (centres unmarked) [Compound 148]
d = CNCCN(C)Cc1c[nH]nc1-c1ccc(N(C)CC2CCOCC2)nc1 [Compound 120]
e = CNCCN(C)Cc1n[nH]cc1-c1cc(C(=O)C(C)C)cc(C(F)(F)F)c1 [Compound 134]
[in] Arrange by IC50, high to low. List the labels in the requested order.
[out] e, d, a, c, b

P = CNCCN(C)Cc1c[nH]nc1-c1ccc(NC(C)c2ccncc2)nc1 (centres unmarked) [Compound 67]
Q = CNCCN(C)Cc1c[nH]nc1-c1ccc(OCCOc2ccc(C(F)(F)F)cc2)cc1 [Compound 138]
[in] Field: entry with larger IC50 (options P / Q ). Provide the label of your selected option as the answer.
[out] P

I = CNCCN(C)Cc1c[nH]nc1-c1ccc(N(C)CCOc2cccc(OC)c2)cc1 [Compound 57]
II = CNCCN(C)Cc1c[nH]nc1-c1cc(OC2CCOCC2)cc(C(F)(F)F)c1 [Compound 123]
III = CNCCN(C)Cc1c[nH]nc1-c1ccc(OCCc2ccccc2)cc1 [Compound 25]
IV = CNCCN(C)Cc1c[nH]nc1-c1ccc(OC2CC(OCCC3CCCCC3)C2)cc1 (centres unmarked) [Compound 100]
[in] # ascending order, key=IC50 List the labels in the requested order.
[out] III, I, IV, II
(III: 6.68 nM, I: 11.8 nM, IV: 30 nM, II: 43.9 nM)

a = CNCCN(C)Cc1cnn(C)c1-c1cccc(OC2CC2)c1 [Compound 126]
b = CNCCN(C)Cc1c[nH]nc1-c1ccc(OCCOc2ccc(C(C)C)cc2)cc1 [Compound 144]
[in] Of a and b , which shows the smaller IC50 value? Provide the label of your selected option as the answer.
[out] b

---

Molecular target: human PRMT8 (Homo sapiens)
Sequence (Q9NR22 whole entry): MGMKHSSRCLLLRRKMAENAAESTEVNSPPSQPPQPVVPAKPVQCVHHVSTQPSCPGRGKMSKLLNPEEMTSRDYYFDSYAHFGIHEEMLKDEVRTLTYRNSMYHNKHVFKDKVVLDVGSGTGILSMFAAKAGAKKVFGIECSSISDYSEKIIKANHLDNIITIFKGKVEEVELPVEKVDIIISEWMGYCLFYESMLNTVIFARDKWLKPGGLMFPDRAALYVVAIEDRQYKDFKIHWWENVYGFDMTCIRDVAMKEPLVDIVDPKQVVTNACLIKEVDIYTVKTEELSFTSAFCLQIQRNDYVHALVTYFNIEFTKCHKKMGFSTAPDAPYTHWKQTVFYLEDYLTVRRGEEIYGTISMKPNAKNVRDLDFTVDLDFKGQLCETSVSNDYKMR
Assay: PRMT8 Biochemical Assay
Details: PRMT8 IC50 (uM), peptide substrate, 3H-SAM Flashplate assay
READOUT_KIND: IC50 (µM)

# count of solved cases: 3
# COMPOUND, READOUT_KIND, RECORDED_VALUE
records = [
    ("CNCCN(C)Cc1cnn(C2CCC2)c1-c1ccc(OC(C)C)cc1", "IC50", 0.056),
    ("CNCCN(C)Cc1c[nH]nc1-c1cc(OCCOC)cc(C(C)(C)C)c1", "IC50", 0.203),
    ("CNCCN(C)Cc1c[nH]nc1-c1ccc(OCCC(O)CO)cc1 (stereo not drawn)", "IC50", 0.269),
]

P = CNCCN(C)Cc1c[nH]nc1-c1ccc(OC(CO)CC(C)C)cc1 (stereo not drawn)
Q = CNCCN(C)Cc1c[nH]nc1-c1cc(Cl)c(OCC(C)C)c(C(F)(F)F)c1
R = CNCCN(C)Cc1ccnn1C1CCC2(CCOCC2)CC1
[in] # ascending order, key=IC50 List the labels in the requested order.
[out] Q, R, P

I = CNCCN(C)Cc1c[nH]nc1-c1cc(F)c(OC(CO)CO)c(C(F)(F)F)c1
II = CNCCN(C)Cc1c[nH]nc1-c1ccc(OCCOc2ccc(C(C)C)cc2)cc1
III = CCN(Cc1ccncc1)c1ccc(-c2n[nH]cc2CN(C)CCNC)cn1
[in] Arrange by IC50, high to low. List the labels in the requested order.
[out] III, I, II
